Data origin: patent EP3722296B1

- target: c-KIT T670I kinase (Homo sapiens, UniProt P10721, T670I)
- Construct: The construct contains residues T544-V976 of cKit; GST (N); TEV cleavage site (internal)
- Sequence (P10721 544-976 T670I): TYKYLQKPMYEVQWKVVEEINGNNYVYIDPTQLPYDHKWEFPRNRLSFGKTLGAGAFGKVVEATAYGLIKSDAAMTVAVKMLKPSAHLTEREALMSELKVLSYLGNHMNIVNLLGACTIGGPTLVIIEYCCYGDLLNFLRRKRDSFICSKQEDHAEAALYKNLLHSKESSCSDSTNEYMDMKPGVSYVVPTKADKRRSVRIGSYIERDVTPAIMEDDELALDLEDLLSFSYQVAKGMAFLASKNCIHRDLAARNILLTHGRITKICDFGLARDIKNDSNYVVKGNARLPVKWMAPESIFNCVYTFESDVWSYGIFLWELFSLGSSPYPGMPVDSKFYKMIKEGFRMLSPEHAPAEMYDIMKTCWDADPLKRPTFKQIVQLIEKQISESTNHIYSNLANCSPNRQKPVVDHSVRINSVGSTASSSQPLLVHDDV
- procedure summary: c-KIT T670I kinase assay
- condition: enzymatic assay
pIC50: −log10 of the molar value.
This section presents compounds with their documented pIC50 values.

A selection of reference data follows.
- CCn1c(=O)c(-c2cc(NC(=O)Nc3cc(C)cc(F)c3)c(F)cc2Cl)cc2cnc(NC)cc21: > 8.00
- CCn1c(=O)c(-c2cc(NC(=O)Nc3ccccc3)c(F)cc2C)cc2cnc(NC(=O)N3CCC3)cc21: 7.00 to 8.00
- CCn1c(=O)c(-c2cc(NC(=O)Nc3cccc4ccccc34)c(F)cc2Cl)cc2cnc(NC)cc21: > 8.00
- CCn1c(=O)c(-c2cc(NC(=O)Nc3cc(F)ccc3F)c(F)cc2F)cc2cnc(NC)cc21: > 8.00
- CCn1c(=O)c(-c2cc(NC(=O)Nc3ccccc3)c(F)cc2Cl)cc2cnc(NC(=O)N(C)C)cc21: > 8.00
- CCn1c(=O)c(-c2cc(NC(=O)Nc3ccccc3)c(F)cc2F)cc2cnc(NCCOC)cc21: 6.00 to 7.00
- CCn1c(=O)c(-c2cc(NC(=O)Nc3csc4ccccc34)c(F)cc2C)cc2cnc(NC(=O)N(C)C)cc21: 7.00 to 8.00
- CCn1c(=O)c(-c2cc(NC(=O)Nc3cc(F)cc(Cl)c3)c(F)cc2Cl)cc2cnc(NC)cc21: 7.00 to 8.00

Give the measured pIC50 of CCn1c(=O)c(-c2cc(NC(=O)Nc3ccccc3)c(F)cc2C)cc2cnc(NC(=O)N(C)C)cc21 .
7.00 to 8.00

Need pIC50, item CCn1c(=O)c(-c2cc(NC(=O)Nc3ccccc3)c(F)cc2Cl)cc2cnc(NC(=O)COC)cc21
7.00 to 8.00

Item under review: CNc1cc2c(cn1)cc(-c1cc(NC(=O)Nc3ccccc3)c(F)cc1Cl)c(=O)n2C . Reported pIC50?
7.00 to 8.00

* * *

- target: c-KIT V654A kinase (Homo sapiens, UniProt P10721, V654A)
- Construct: residues T544-V976 with N-terminal GST fusion
- Sequence (P10721 544-976 V654A): as the sequence (P10721 544-976 T670I) above, with V111A, I127T counted along it
- procedure summary: c-KIT V654A Kinase Assay
- condition: enzymatic assay, ATP 200 µM
property measured: IC50

State the recorded IC50 for this entry: CNc1cc2c(cn1)cc(-c1cc(NC(=O)Nc3cccc(F)c3)c(F)cc1Cl)c(=O)n2C(C)C [Example 77]
10 to 100 nM

Would you mind telling me what IC50 value was observed for CCn1c(=O)c(-c2cc(NC(=O)Nc3cc(F)ccc3F)c(F)cc2Cl)cc2cnc(NC)cc21 [Example 68] ?
10 to 100 nM

// query IC50 value for entry CCn1c(=O)c(-c2cc(NC(=O)Nc3ccccc3)c(F)cc2Cl)cc2cnc(NC)cc21 [Example 3]
< 10 nM

// returns reported IC50 for input CCn1c(=O)c(-c2cc(NC(=O)Nc3ccccc3)c(F)cc2C)cc2cnc(NC(=O)N3CCC3)cc21 [Example 110]
10 to 100 nM

Form field: reported IC50 of CCn1c(=O)c(-c2cc(NC(=O)Nc3ccccc3F)c(F)cc2Cl)cc2cnc(NC)cc21 [Example 25]
< 10 nM

Need IC50 of CCn1c(=O)c(-c2cc(NC(=O)Nc3ccccc3)c(F)cc2C)cc2cnc(NC(=O)N(C)C)cc21 [Example 101] , thanks.
10 to 100 nM

If you can, please state the reported IC50 value of CCn1c(=O)c(-c2cc(NC(=O)Nc3ccccc3)c(F)cc2Cl)cc2cnc(NC(=O)N(C)C)cc21 [Example 70] .
10 to 100 nM

Report IC50 for CCn1c(=O)c(-c2cc(NC(=O)Nc3ccccc3F)c(F)cc2Cl)cc2cnc(NCCOC)cc21 [Example 35] please.
10 to 100 nM

Dear colleague, I am looking for the recorded IC50 of the following compound: CCn1c(=O)c(-c2cc(NC(=O)Nc3cc(F)cc(Cl)c3)c(F)cc2Cl)cc2cnc(NC)cc21 [Example 71]
10 to 100 nM
